method-description: Selectivity ratio of Kd for displacement of fluorescent tracer 5-(3-(4-((1S,5S,6S)-10-(3,5-dichlorophenylsulfonyl)-2-oxo-3-(pyridin-3-ylmethyl)-3,10-diazabicyclo[4.3.1]decan-5-yl)-1H-1,2,3-triazol-1-yl)propylcarbamoyl)-2-(6-(dimethylamino)-3-(dimethyliminio)-3H-xanthen-9-yl)benzoate from recombinant full length C-terminal FLAG-tagged FJBP12 to Kd for displacement of fluorescent tracer 5-(3-(4-((1S,5S,6S)-10-(3,5-dichlorophenylsulfonyl)-2-oxo-3-(pyridin-3-ylmethyl)-3,10-diazabicyclo[4.3.1]decan-5-yl)-1H-1,2,3-triazol-1-yl)propylcarbamoyl)-2-(6-(dimethylamino)-3-(dimethyliminio)-3H-xanthen-9-yl)benzoate from recombinant full length C-terminal FLAG-tagged FKBP51 (unknown origin)
So basically: is Selectivity ratio under 4? Then class 1. Not under? Then class 0.

Solved entries:
COc1ccc(CC[C@H]2OC(=O)[C@@H]3CCCCN3C(=O)[C@@H](C3CCCCC3)c3cc(OC)c(OC)c(c3)OCC/C=C/COc3cccc2c3)cc1OC ... class 0
COc1ccc(CC[C@H]2OC(=O)[C@@H]3CCCCN3C(=O)[C@@H](C3CCCCC3)c3cc(OC)c(OC)c(c3)OC/C=C/COc3cccc2c3)cc1OC ... class 1
COc1ccc(CC[C@H]2OC(=O)[C@@H]3CCCCN3C(=O)[C@@H](C3CCCCC3)c3cc(OC)c(OC)c(c3)OC[C@@H](O)[C@H](O)COc3cccc2c3)cc1OC ... class 0
COc1ccc(CC[C@H]2OC(=O)[C@@H]3CCCCN3C(=O)[C@@H](C3CCCCC3)c3cc(OC)c(c(OC)c3)OC/C=C\COc3cccc2c3)cc1OC ... class 0
COc1ccc(CC[C@H]2OC(=O)[C@@H]3CCCCN3C(=O)[C@@H](C3CCCCC3)c3cc(OC)c(c(OC)c3)OCCC(=O)COc3cccc2c3)cc1OC ... class 0

Consider the additional compound presented here.
[ask] Hello, is Selectivity ratio of the following compound strictly smaller than 4? `COc1ccc(CC[C@H]2OC(=O)[C@@H]3CCCCN3C(=O)[C@@H](C3CCCCC3)c3cc(OC)c(OC)c(c3)OCCCCOc3cccc2c3)cc1OC`
[reply] class 1

---

assayed-target: Peptidyl-prolyl cis-trans isomerase FKBP1A (Homo sapiens)
Sequence (P62942 whole entry): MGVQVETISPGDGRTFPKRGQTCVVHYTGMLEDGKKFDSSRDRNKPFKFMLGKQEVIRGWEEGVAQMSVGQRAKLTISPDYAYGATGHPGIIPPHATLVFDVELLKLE
method-description: Displacement of fluorescent tracer 5-(3-(4-((1S,5S,6S)-10-(3,5-dichlorophenylsulfonyl)-2-oxo-3-(pyridin-3-ylmethyl)-3,10-diazabicyclo[4.3.1]decan-5-yl)-1H-1,2,3-triazol-1-yl)propylcarbamoyl)-2-(6-(dimethylamino)-3-(dimethyliminio)-3H-xanthen-9-yl)benzoate from recombinant full length C-terminal FLAG-tagged FKBP12 (unknown origin) expressed in Escherichia coli BL21 ([…]) cells incubated for 30 mins by fluorescence polarisation competition binding assay
measurement-name: log10 Kd (log10 of the value in µM)
Please note: log10 values; quantity Kd; unit µM.

// below: answered compounds
COc1ccc(CC[C@H]2OC(=O)[C@@H]3CCCCN3C(=O)[C@@H](C3CCCCC3)c3cc(OC)c(OC)c(c3)OCCOc3cccc2c3)cc1OC ... -0.61
COc1ccc(CC[C@H]2OC(=O)[C@@H]3CCCCN3C(=O)[C@@H](C3CCCCC3)c3cc(OC)c(c(OC)c3)OCCC(=O)COc3cccc2c3)cc1OC ... -1.07

[ask] Need log10 Kd, item `COc1ccc(CC[C@H]2OC(=O)[C@@H]3CCCCN3C(=O)[C@@H](C3CCCCC3)c3cc(OC)c(c(OC)c3)OCCCOC/C=C/COc3cccc2c3)cc1OC`
[reply] -0.23

[ask] Need log10 Kd, item `COc1ccc(CC[C@H]2OC(=O)[C@@H]3CCCCN3C(=O)[C@@H](C3CCCCC3)c3cc(OC)c(c(OC)c3)OCCCCCOc3cccc2c3)cc1OC`
[reply] 0.17

[ask] Need log10 Kd, item `COc1ccc(CC[C@H]2OC(=O)[C@@H]3CCCCN3C(=O)[C@@H](C3CCCCC3)c3cc(OC)c(OC)c(c3)OC[C@H](O)[C@@H](O)COc3cccc2c3)cc1OC`
[reply] -1.36

[ask] Need log10 Kd, item `COc1cccc([C@@H](CCc2ccc(OC)c(OC)c2)OC(=O)[C@@H]2CCCCN2C(=O)[C@H](c2cc(OC)c(OC)c(OC)c2)C2CCCCC2)c1`
[reply] -0.58

[ask] Need log10 Kd, item `COc1ccc(CC[C@H]2OC(=O)[C@@H]3CCCCN3C(=O)[C@@H](C3CCCCC3)c3cc(OC)c(OC)c(c3)OCC/C=C\COc3cccc2c3)cc1OC`
[reply] -0.86

[ask] Need log10 Kd, item `COc1ccc(CC[C@H]2OC(=O)[C@@H]3CCCCN3C(=O)[C@@H](C3CCCCC3)c3cc(OC)c(c(OC)c3)OCCCOc3cccc2c3)cc1OC`
[reply] -0.13

---

The following compounds are listed with their measured Selectivity ratio values.
method-description: Selectivity ratio of Kd for displacement of fluorescent tracer 5-(3-(4-((1S,5S,6S)-10-(3,5-dichlorophenylsulfonyl)-2-oxo-3-(pyridin-3-ylmethyl)-3,10-diazabicyclo[4.3.1]decan-5-yl)-1H-1,2,3-triazol-1-yl)propylcarbamoyl)-2-(6-(dimethylamino)-3-(dimethyliminio)-3H-xanthen-9-yl)benzoate from recombinant full length C-terminal FLAG-tagged FJBP12 to Kd for displacement of fluorescent tracer 5-(3-(4-((1S,5S,6S)-10-(3,5-dichlorophenylsulfonyl)-2-oxo-3-(pyridin-3-ylmethyl)-3,10-diazabicyclo[4.3.1]decan-5-yl)-1H-1,2,3-triazol-1-yl)propylcarbamoyl)-2-(6-(dimethylamino)-3-(dimethyliminio)-3H-xanthen-9-yl)benzoate from recombinant full length C-terminal FLAG-tagged FKBP51 (unknown origin)
Answer as a number with no unit attached.

// below: answered compounds
COc1ccc(CC[C@H]2OC(=O)[C@@H]3CCCCN3C(=O)[C@@H](C3CCCCC3)c3cc(OC)c(OC)c(c3)OCCCOCCCCOc3cccc2c3)cc1OC ... 3.4
COc1ccc(CC[C@H]2OC(=O)[C@@H]3CCCCN3C(=O)[C@@H](C3CCCCC3)c3cc(OC)c(c(OC)c3)OCCOc3cccc2c3)cc1OC ... 7.8

Query compound follows.
[ask] Need Selectivity ratio, item `COc1ccc(CC[C@H]2OC(=O)[C@@H]3CCCCN3C(=O)[C@@H](C3CCCCC3)c3cc(OC)c(OC)c(c3)OCCOC/C=C\COc3cccc2c3)cc1OC`
[reply] 2.5

---

method-description: Selectivity ratio of Kd for displacement of fluorescent tracer 5-(3-(4-((1S,5S,6S)-10-(3,5-dichlorophenylsulfonyl)-2-oxo-3-(pyridin-3-ylmethyl)-3,10-diazabicyclo[4.3.1]decan-5-yl)-1H-1,2,3-triazol-1-yl)propylcarbamoyl)-2-(6-(dimethylamino)-3-(dimethyliminio)-3H-xanthen-9-yl)benzoate from recombinant full length C-terminal FLAG-tagged FKBP52 (unknown origin) to Kd for displacement of fluorescent tracer 5-(3-(4-((1S,5S,6S)-10-(3,5-dichlorophenylsulfonyl)-2-oxo-3-(pyridin-3-ylmethyl)-3,10-diazabicyclo[4.3.1]decan-5-yl)-1H-1,2,3-triazol-1-yl)propylcarbamoyl)-2-(6-(dimethylamino)-3-(dimethyliminio)-3H-xanthen-9-yl)benzoate from recombinant full length C-terminal FLAG-tagged FKBP51 (unknown origin)
The following molecules are listed with their measured Selectivity ratio values.

[ask] Need Selectivity ratio, item `COc1ccc(CC[C@H]2OC(=O)[C@@H]3CCCCN3C(=O)[C@@H](C3CCCCC3)c3cc(OC)c(OC)c(c3)OCCCC(=O)COc3cccc2c3)cc1OC`
[reply] 146

[ask] Need Selectivity ratio, item `COc1ccc(CC[C@H]2OC(=O)[C@@H]3CCCCN3C(=O)[C@@H](C3CCCCC3)c3cc(OC)c(c(OC)c3)OCCCCOc3cccc2c3)cc1OC`
[reply] > 112

[ask] Need Selectivity ratio, item `COc1ccc(CC[C@H]2OC(=O)[C@@H]3CCCCN3C(=O)[C@@H](C3CCCCC3)c3cc(OC)c(OC)c(c3)OCCCOC/C=C\COc3cccc2c3)cc1OC`
[reply] > 69

[ask] Need Selectivity ratio, item `COc1ccc(CC[C@H]2OC(=O)[C@@H]3CCCCN3C(=O)[C@@H](C3CCCCC3)c3cc(OC)c(c(OC)c3)OC/C=C\COc3cccc2c3)cc1OC`
[reply] > 149

---

method-description: Selectivity ratio of Kd for displacement of fluorescent tracer 5-(3-(4-((1S,5S,6S)-10-(3,5-dichlorophenylsulfonyl)-2-oxo-3-(pyridin-3-ylmethyl)-3,10-diazabicyclo[4.3.1]decan-5-yl)-1H-1,2,3-triazol-1-yl)propylcarbamoyl)-2-(6-(dimethylamino)-3-(dimethyliminio)-3H-xanthen-9-yl)benzoate from recombinant full length C-terminal FLAG-tagged FJBP12 to Kd for displacement of fluorescent tracer 5-(3-(4-((1S,5S,6S)-10-(3,5-dichlorophenylsulfonyl)-2-oxo-3-(pyridin-3-ylmethyl)-3,10-diazabicyclo[4.3.1]decan-5-yl)-1H-1,2,3-triazol-1-yl)propylcarbamoyl)-2-(6-(dimethylamino)-3-(dimethyliminio)-3H-xanthen-9-yl)benzoate from recombinant full length C-terminal FLAG-tagged FKBP51 (unknown origin)
So basically: is Selectivity ratio under 3? Then TRUE. Not under? Then FALSE.

COc1ccc(CC[C@H]2OC(=O)[C@@H]3CCCCN3C(=O)[C@@H](C3CCCCC3)c3cc(OC)c(OC)c(c3)OCCOCC(=O)CCOc3cccc2c3)cc1OC ... TRUE
COc1ccc(CC[C@H]2OC(=O)[C@@H]3CCCCN3C(=O)[C@@H](C3CCCCC3)c3cc(OC)c(c(OC)c3)OCCCCOc3cccc2c3)cc1OC ... FALSE
COc1ccc(CC[C@H]2OC(=O)[C@@H]3CCCCN3C(=O)[C@@H](C3CCCCC3)c3cc(OC)c(OC)c(c3)OCCOCCCCOc3cccc2c3)cc1OC ... TRUE
COc1ccc(CC[C@H]2OC(=O)[C@@H]3CCCCN3C(=O)[C@@H](C3CCCCC3)c3cc(OC)c(c(OC)c3)OCC/C=C/COc3cccc2c3)cc1OC ... FALSE
COc1ccc(CC[C@H]2OC(=O)[C@@H]3CCCCN3C(=O)[C@@H](C3CCCCC3)c3cc(OC)c(OC)c(c3)OC[C@H](O)[C@@H](O)COc3cccc2c3)cc1OC ... TRUE

[ask] Hello, is Selectivity ratio of the following molecule strictly smaller than 3? `COc1ccc(CC[C@H]2OC(=O)[C@@H]3CCCCN3C(=O)[C@@H](C3CCCCC3)c3cc(OC)c(c(OC)c3)OCCCOC/C=C/COc3cccc2c3)cc1OC`
[reply] FALSE
